B1: EHEE_rd3_0053 (parent)
chain: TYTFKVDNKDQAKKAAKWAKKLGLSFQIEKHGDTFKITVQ

Variants of: B1
Test: folding stability dG (cDNA display proteolysis); higher = more stable
Settings: PBS, room temperature
I would appreciate it if you labelled entries yes when folding stability dG is 2 kcal/mol or higher, otherwise no.

Worked cases, answers included:
{"Mut": "K13S", "Label Value": "yes"}
{"Mut": "Q40H", "Label Value": "yes"}
{"Mut": "K17T", "Label Value": "yes"}
{"Mut": "K5W", "Label Value": "yes"}
{"Mut": "A12T", "Label Value": "no"}
{"Mut": "V6R", "Label Value": "no"}

Quick check: does K36D have folding stability dG greater than or equal to 2 kcal/mol?
no

Quick check: does L22W have folding stability dG greater than or equal to 2 kcal/mol?
yes

Quick check: does K9I have folding stability dG greater than or equal to 2 kcal/mol?
yes

Quick check: does A12S have folding stability dG greater than or equal to 2 kcal/mol?
no

Quick check: does A19Y have folding stability dG greater than or equal to 2 kcal/mol?
yes

Quick check: does K5H have folding stability dG greater than or equal to 2 kcal/mol?
yes

Quick check: does V39T have folding stability dG greater than or equal to 2 kcal/mol?
no

Quick check: does T3S have folding stability dG greater than or equal to 2 kcal/mol?
yes

Quick check: does V39R have folding stability dG greater than or equal to 2 kcal/mol?
no

Quick check: does H31Q have folding stability dG greater than or equal to 2 kcal/mol?
yes

Quick check: does A19G have folding stability dG greater than or equal to 2 kcal/mol?
no

Quick check: does A15I have folding stability dG greater than or equal to 2 kcal/mol?
yes

Quick check: does F26Y have folding stability dG greater than or equal to 2 kcal/mol?
yes

Quick check: does K14F have folding stability dG greater than or equal to 2 kcal/mol?
yes

Quick check: does F26T have folding stability dG greater than or equal to 2 kcal/mol?
no

Quick check: does A12V have folding stability dG greater than or equal to 2 kcal/mol?
yes

Quick check: does W18Y have folding stability dG greater than or equal to 2 kcal/mol?
no

Quick check: does G32Y have folding stability dG greater than or equal to 2 kcal/mol?
no

Quick check: does S25A have folding stability dG greater than or equal to 2 kcal/mol?
yes

Quick check: does K21A have folding stability dG greater than or equal to 2 kcal/mol?
yes

Quick check: does N8A have folding stability dG greater than or equal to 2 kcal/mol?
no

Quick check: does D33A have folding stability dG greater than or equal to 2 kcal/mol?
yes

Quick check: does T34Y have folding stability dG greater than or equal to 2 kcal/mol?
yes

Quick check: does V6T have folding stability dG greater than or equal to 2 kcal/mol?
yes

Quick check: does A16H have folding stability dG greater than or equal to 2 kcal/mol?
no

Quick check: does N8V have folding stability dG greater than or equal to 2 kcal/mol?
no

Quick check: does A16W have folding stability dG greater than or equal to 2 kcal/mol?
yes

Quick check: does Q40C have folding stability dG greater than or equal to 2 kcal/mol?
yes
